Quick list: pIC50 per entry.
test system: A549; assay: Cytotoxicity against human A549 cells assessed as growth inhibition measured by SRB assay; type: functional, cell-based
pIC50: −log10 of the molar value.
outcome measure: pIC50

INSERT INTO results (input_smiles, outcome_measure, operator_symbol, value_observed) VALUES
  ('COC(=O)CC/C(C)=C/Cc1c(OC)c(C)c2c(c1OCC#CCN1CCOCC1)C(=O)OC2', 'pIC50', '<', 4.30),
  ('COC(=O)CC/C(C)=C/Cc1c(OC)c(C)c2c(c1OCC#CCN1CCC(C(=O)O)CC1)C(=O)OC2', 'pIC50', '<', 4.30),
  ('COC(=O)CC/C(C)=C/Cc1c(OC)c(C)c2c(c1OCC#CCN1CCN(c3ccccc3)CC1)C(=O)OC2', 'pIC50', '=', 4.66),
  ('COC(=O)CC/C(C)=C/Cc1c(OC)c(C)c2c(c1OCC#CCN1CCN(c3ccccc3F)CC1)C(=O)OC2', 'pIC50', '=', 4.34),
  ('COC(=O)CC/C(C)=C/Cc1c(O)c2c(c(C)c1OC)COC2=O', 'pIC50', '=', 6.09);

* * *

experiment: Cytotoxicity against human […] cells assessed as growth inhibition measured by SRB assay; type: cell-based
outcome measure: IC50

INSERT INTO assay_data (molecule, value_observed) VALUES
  ('COC(=O)CC/C(C)=C/Cc1c(OC)c(C)c2c(c1OCC#CCN1CCN(c3ccccc3)CC1)C(=O)OC2', '> 50 µM'),
  ('CCCCN(CC#CCOc1c(C/C=C(\C)CCC(=O)OC)c(OC)c(C)c2c1C(=O)OC2)CCCC', '36 µM'),
  ('C#CCOc1c(C/C=C(\C)CCC(=O)OC)c(OC)c(C)c2c1C(=O)OC2', '25.2 µM'),
  ('COC(=O)CC/C(C)=C/Cc1c(O)c2c(c(C)c1OC)COC2=O', '5.82 µM'),
  ('COC(=O)CC/C(C)=C/Cc1c(OC)c(C)c2c(c1OCC#CCN1CCCC1)C(=O)OC2', '> 50 µM'),
  ('COC(=O)CC/C(C)=C/Cc1c(OC)c(C)c2c(c1OCC#CCN1CCN(c3ccccc3OC)CC1)C(=O)OC2', '> 50 µM'),
  ('COC(=O)CC/C(C)=C/Cc1c(OC)c(C)c2c(c1OCC#CCN1CCOCC1)C(=O)OC2', '> 50 µM'),
  ('COC(=O)CC/C(C)=C/Cc1c(OC)c(C)c2c(c1OCC#CCN1CCC(C(=O)OC)CC1)C(=O)OC2', '> 50 µM'),
  ('COC(=O)CC/C(C)=C/Cc1c(OC)c(C)c2c(c1OCC#CCN1CCN(c3ccc(O)cc3)CC1)C(=O)OC2', '> 50 µM'),
  ('CCCCNc1ccc(CC#CCOc2c(C/C=C(\C)CCC(=O)OC)c(OC)c(C)c3c2C(=O)OC3)cc1', '18.3 µM'),
  ('COC(=O)CC/C(C)=C/Cc1c(OC)c(C)c2c(c1OCC#CCN1CCN(C(=O)C3COc4ccccc4O3)CC1)C(=O)OC2 (stereo not given)', '> 50 µM'),
  ('COC(=O)CC/C(C)=C/Cc1c(OC)c(C)c2c(c1OCC#CCN1CCN(c3ccc(C#N)cc3)CC1)C(=O)OC2', '> 50 µM'),
  ('COC(=O)CC/C(C)=C/Cc1c(OC)c(C)c2c(c1OCC#CCN1CCC(C(=O)O)CC1)C(=O)OC2', '> 50 µM'),
  ('COC(=O)CC/C(C)=C/Cc1c(OC)c(C)c2c(c1OCC#CCN1CCN(Cc3ccc(Cl)cc3)CC1)C(=O)OC2', '> 50 µM'),
  ('COc1c(C)c2c(c(O)c1C/C=C(\C)CCC(=O)O)C(=O)OC2', '7.19 µM'),
  ('COC(=O)CC/C(C)=C/Cc1c(OC)c(C)c2c(c1OCC#CCN1CCC(Cc3ccccc3)CC1)C(=O)OC2', '> 50 µM'),
  ('COC(=O)CC/C(C)=C/Cc1c(OC)c(C)c2c(c1OCC#CCN1CCN(c3ccc(C)cc3)CC1)C(=O)OC2', '> 50 µM'),
  ('COC(=O)CC/C(C)=C/Cc1c(OC)c(C)c2c(c1OCC#CCN1CCCc3ccccc31)C(=O)OC2', '> 50 µM'),
  ('COC(=O)CC/C(C)=C/Cc1c(OC)c(C)c2c(c1OCC#CCN1CCN(C(c3ccccc3)c3ccccc3)CC1)C(=O)OC2', '> 50 µM'),
  ('C=CCN(CC#CCOc1c(C/C=C(\C)CCC(=O)OC)c(OC)c(C)c2c1C(=O)OC2)CC=C', '36.4 µM');
